Where these numbers come from: patent US20250340574A1

target: CFTR (F508del/MF-HBE cells) (Homo sapiens, UniProt P13569, DEL508-508); construct: human bronchial epithelial (HBE) cells derived from CF subjects heterozygous for F508del and a minimal function CFTR mutation (F508del/MF-HBE); endogenous in cells; host or cells: Primary human bronchial epithelial cells from CF subjects (F508del/MF genotype), differentiated at an air-liquid interface; experiment: Ussing chamber assay of CFTR-mediated short-circuit currents, Assay C (0.026 μM to 25 μM, 6 concentrations); format: cell-based; details: with 33 nM potentiator and 18 μM Tezacaftor, 20% human serum
Sequence (P13569 with tags, fused parts or gaps DEL508-508): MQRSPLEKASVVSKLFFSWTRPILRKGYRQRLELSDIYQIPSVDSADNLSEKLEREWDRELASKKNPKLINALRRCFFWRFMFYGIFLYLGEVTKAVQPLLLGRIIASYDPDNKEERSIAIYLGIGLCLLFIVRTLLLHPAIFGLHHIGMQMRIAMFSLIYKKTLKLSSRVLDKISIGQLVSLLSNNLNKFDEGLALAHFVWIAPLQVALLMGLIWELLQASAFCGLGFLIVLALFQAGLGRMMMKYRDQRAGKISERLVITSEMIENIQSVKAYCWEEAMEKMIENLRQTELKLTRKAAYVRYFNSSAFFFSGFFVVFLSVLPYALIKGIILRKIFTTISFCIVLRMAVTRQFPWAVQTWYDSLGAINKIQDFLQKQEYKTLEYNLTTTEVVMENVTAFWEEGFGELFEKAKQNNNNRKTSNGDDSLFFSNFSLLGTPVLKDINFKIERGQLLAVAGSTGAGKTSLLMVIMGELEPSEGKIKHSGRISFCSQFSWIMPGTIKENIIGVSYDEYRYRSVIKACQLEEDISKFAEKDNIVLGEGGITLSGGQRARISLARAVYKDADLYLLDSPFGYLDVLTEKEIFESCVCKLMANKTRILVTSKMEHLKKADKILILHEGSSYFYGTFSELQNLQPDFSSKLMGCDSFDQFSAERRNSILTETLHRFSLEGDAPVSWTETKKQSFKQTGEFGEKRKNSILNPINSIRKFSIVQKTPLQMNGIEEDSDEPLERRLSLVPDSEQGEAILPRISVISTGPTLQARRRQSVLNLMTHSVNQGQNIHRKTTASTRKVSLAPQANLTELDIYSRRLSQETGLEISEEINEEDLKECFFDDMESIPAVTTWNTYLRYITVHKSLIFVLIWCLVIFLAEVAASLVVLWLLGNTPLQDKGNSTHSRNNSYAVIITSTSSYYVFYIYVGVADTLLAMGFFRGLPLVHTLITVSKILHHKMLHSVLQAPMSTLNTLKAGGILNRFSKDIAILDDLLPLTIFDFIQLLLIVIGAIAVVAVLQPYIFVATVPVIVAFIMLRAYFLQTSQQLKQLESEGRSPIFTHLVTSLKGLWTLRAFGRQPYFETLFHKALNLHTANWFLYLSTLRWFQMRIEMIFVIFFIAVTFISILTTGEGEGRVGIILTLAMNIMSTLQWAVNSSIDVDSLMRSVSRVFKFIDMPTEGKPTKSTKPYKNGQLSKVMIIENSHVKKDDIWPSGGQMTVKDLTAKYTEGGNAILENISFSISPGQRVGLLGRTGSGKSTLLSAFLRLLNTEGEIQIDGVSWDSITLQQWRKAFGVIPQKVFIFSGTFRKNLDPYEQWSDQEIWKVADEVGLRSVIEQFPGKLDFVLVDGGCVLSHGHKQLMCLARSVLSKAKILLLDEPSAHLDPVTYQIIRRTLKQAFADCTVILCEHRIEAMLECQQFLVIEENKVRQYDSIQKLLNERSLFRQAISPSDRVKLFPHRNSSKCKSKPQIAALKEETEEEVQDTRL
Catalogue of EC50 values

Here's what some known entries look like.
[[record]]
compound = "Cc1cccc(C)c1-c1cc2nc(n1)NS(=O)(=O)c1cccc(c1)C(=O)N(Cc1cnc3sc(C4CC4)cc3n1)[C@H](CC13CC(C1)C3)CO2 [IV-42]"
target_or_test_system = "CFTR (F508del/MF-HBE cells) (Homo sapiens, UniProt P13569, DEL508-508)"
recorded_endpoint = "EC50"
recorded_measurement = "1000 to 3000 nM"

[[record]]
compound = "Cc1cccc(C)c1-c1cc2nc(n1)NS(=O)(=O)c1cccc(c1)C(=O)N(Cc1cnc3oc(C(C)(C)C)cc3n1)[C@H](CC1(C)CCC1)CO2 [IV-5]"
target_or_test_system = "CFTR (F508del/MF-HBE cells) (Homo sapiens, UniProt P13569, DEL508-508)"
recorded_endpoint = "EC50"
recorded_measurement = "1000 to 3000 nM"

[[record]]
compound = "Cc1cccc(C)c1-c1cc2nc(n1)NS(=O)(=O)c1cccc(c1)C(=O)N(Cc1ncc3cc(C(C)(C)C)n(C)c3n1)[C@H](CC(C)(C)C)CO2 [IV-38]"
target_or_test_system = "CFTR (F508del/MF-HBE cells) (Homo sapiens, UniProt P13569, DEL508-508)"
recorded_endpoint = "EC50"
recorded_measurement = "1000 to 3000 nM"


Exercise: Checklist item: EC50 tested on CFTR (F508del/MF-HBE cells) (Homo sapiens, UniProt P13569, DEL508-508), entry Cc1cccc(C)c1-c1cc2nc(n1)NS(=O)(=O)c1cccc(c1)C(=O)N(Cc1cnc3oc(C4CCC4)cc3n1)[C@H](CC1(C)CC1)CO2 [Compound I-133] , value?
Key: 3000 to 30000 nM

Exercise: Checklist item: EC50 tested on CFTR (F508del/MF-HBE cells) (Homo sapiens, UniProt P13569, DEL508-508), entry Cc1cccc(C)c1-c1cc2nc(n1)NS(=O)(=O)c1cccc(c1)C(=O)N(Cc1cnc3oc(C(C)(C)C)cc3n1)[C@@H](C(C(C)C)C(C)C)CO2 [IV-36] , value?
Key: < 1000 nM

Exercise: Checklist item: EC50 tested on CFTR (F508del/MF-HBE cells) (Homo sapiens, UniProt P13569, DEL508-508), entry CCc1cccc(CC)c1-c1cc2nc(n1)NS(=O)(=O)c1cccc(c1)C(=O)N(Cc1cnc3cc(C(C)(C)C)n(C)c3n1)[C@H](CC(C)(C)C)CO2 [IV-66] , value?
Key: < 1000 nM

Exercise: Checklist item: EC50 tested on CFTR (F508del/MF-HBE cells) (Homo sapiens, UniProt P13569, DEL508-508), entry Cc1cccc(CC(C)C)c1-c1nc2nc(c1C)OC[C@@H](CC(C)(C)C)N(Cc1cnc3oc(C4(C)CC4)cc3n1)C(=O)c1cccc(c1)S(=O)(=O)N2 (atropisomer, axis not shown) [Compound I-257] , value?
Key: 1000 to 3000 nM

Exercise: Checklist item: EC50 tested on CFTR (F508del/MF-HBE cells) (Homo sapiens, UniProt P13569, DEL508-508), entry Cc1cccc(CC(C)C)c1-c1nc2nc(c1C)OC[C@@H](CC1(C)CC1)N(Cc1cnc3cc(C4(C(F)(F)F)CC4)n(C)c3n1)C(=O)c1cccc(c1)S(=O)(=O)N2 (atropisomer, axis not shown) [IV-77] , value?
Key: 1000 to 3000 nM

Exercise: Checklist item: EC50 tested on CFTR (F508del/MF-HBE cells) (Homo sapiens, UniProt P13569, DEL508-508), entry C=C(C)c1cc2nc(CN3C(=O)c4cccc(c4)S(=O)(=O)Nc4nc(cc(-c5c(C)cccc5C)n4)OC[C@H]3CC3(C)CC3)cnc2o1 [Compound I-255] , value?
Key: 1000 to 3000 nM
